system: L1210 leukemia ip in BDF1 mice, survival T/C; assay: NCI In Vivo Anticancer Drug Screen. Data for tumor model L1210 Leukemia (intraperitoneal) in B6D2F1 (BDF1) mice; conditions: endpoint: mean survival time; dose: 50.0 mg/kg/injection; schedule: Q01DX001 (ip); vehicle: carboxymethylcellulose (CMC); higher = longer survival
Toxic doses and inconclusive results are not listed.
READOUT_KIND: T/C

Cn1c2ccccc2c(=O)c2c(O)cc3c(c21)C=C(Br)C(C)(C)O3: 88 % of control
[O-][N+](=Nc1cccc(Br)c1)c1cccc(Br)c1: 101 % of control
Clc1ccc(/C=C\c2ccncc2)cc1: 102 % of control
CC(=O)N1c2ccccc2Sc2ccc(C(=O)CCl)cc21: 96 % of control
CCC1CC2c3cc(OC)c(OC)cc3CCN2CC1(O)c1ccccc1 (centres undefined): 95 % of control

IN: Return T/C for the following compound: COc1ccc(/C=C2/c3c(c(-c4ccccc4)c4ccccc4c3-c3ccccc3)S2(=O)=O)cc1
OUT: 97 % of control

IN: Return T/C for the following compound: O=S1(=O)CC2C1C1(Cl)C(Cl)=C(Cl)C2(Cl)C1(Cl)Cl (centres undefined)
OUT: 100 % of control

IN: Return T/C for the following compound: O=[N+]([O-])/C=C/c1ccc(Cl)cc1Cl
OUT: 95 % of control

IN: Return T/C for the following compound: Cc1ccc(CN(C)C)c(C(O)(c2ccccc2)c2ccccc2)c1
OUT: 96 % of control
